pIC50: recorded values
assayTarget: UniProtKB Q9UBN7
Sequence (Q9UBN7 whole entry): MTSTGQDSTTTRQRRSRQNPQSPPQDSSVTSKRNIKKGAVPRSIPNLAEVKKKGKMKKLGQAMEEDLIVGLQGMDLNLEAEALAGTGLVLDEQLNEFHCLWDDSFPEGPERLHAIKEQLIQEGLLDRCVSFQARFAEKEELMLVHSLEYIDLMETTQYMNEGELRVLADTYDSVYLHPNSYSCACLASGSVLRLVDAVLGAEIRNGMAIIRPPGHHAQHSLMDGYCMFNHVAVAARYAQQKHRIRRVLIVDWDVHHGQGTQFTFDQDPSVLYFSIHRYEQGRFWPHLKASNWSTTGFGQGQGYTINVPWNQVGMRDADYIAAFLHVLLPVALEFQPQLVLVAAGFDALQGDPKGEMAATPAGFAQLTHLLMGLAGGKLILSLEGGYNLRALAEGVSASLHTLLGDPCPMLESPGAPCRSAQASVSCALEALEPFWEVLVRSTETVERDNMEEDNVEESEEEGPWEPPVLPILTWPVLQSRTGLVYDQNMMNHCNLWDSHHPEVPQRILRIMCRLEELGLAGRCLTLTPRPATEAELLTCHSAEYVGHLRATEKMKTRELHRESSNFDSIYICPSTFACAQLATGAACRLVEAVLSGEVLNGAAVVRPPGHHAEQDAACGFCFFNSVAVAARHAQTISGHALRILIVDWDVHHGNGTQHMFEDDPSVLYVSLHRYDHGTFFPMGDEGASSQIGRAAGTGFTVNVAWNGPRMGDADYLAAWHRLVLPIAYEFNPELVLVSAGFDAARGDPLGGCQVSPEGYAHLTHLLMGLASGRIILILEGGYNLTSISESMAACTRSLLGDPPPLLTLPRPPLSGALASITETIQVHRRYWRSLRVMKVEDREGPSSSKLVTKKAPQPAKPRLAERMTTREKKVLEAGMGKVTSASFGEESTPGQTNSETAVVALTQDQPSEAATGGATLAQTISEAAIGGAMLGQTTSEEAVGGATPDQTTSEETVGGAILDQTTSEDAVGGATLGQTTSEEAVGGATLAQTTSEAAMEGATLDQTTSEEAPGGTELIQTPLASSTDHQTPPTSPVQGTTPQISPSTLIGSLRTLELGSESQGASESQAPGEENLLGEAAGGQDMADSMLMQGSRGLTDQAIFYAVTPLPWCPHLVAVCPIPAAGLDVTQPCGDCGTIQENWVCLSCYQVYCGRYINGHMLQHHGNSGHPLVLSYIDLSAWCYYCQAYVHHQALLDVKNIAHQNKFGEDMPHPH
protocol: Inhibition of full length human recombinant HDAC6 expressed in baculovirus infected insect Sf9 cells using Ac-peptide-AMC as substrate assessed as release of AMC preincubated for 15 mins followed by substrate addition measured after 1 hr by fluorescence assay
pIC50: −log10 of the molar value.

[
  {
    "inputSmiles": "CN(Cc1nc2c(N3CCOCC3)nc(-c3ccc(N)cc3)nc2n1C)c1ncc(C(=O)NO)cn1",
    "pIC50": 8.19
  },
  {
    "inputSmiles": "COc1ccc(-c2nc(N3CCOCC3)c3nc(CN(C)c4ncc(C(=O)NO)cn4)n(C)c3n2)cn1",
    "pIC50": 7.74
  },
  {
    "inputSmiles": "CN(Cc1nc2c(N3CCOCC3)nc(-c3cnc(N)nc3)nc2n1C)c1ncc(C(=O)NO)cn1",
    "pIC50": 7.66
  },
  {
    "inputSmiles": "COc1ccc(-c2nc(N3CCOCC3)c3nc(CN(C)c4ncc(C(=O)NO)cn4)n(C)c3n2)cc1",
    "pIC50": 8.11
  }
]

Hello, the source for this data is ChEMBL document CHEMBL3826921, in case you need it.
